Ref: patent US9738610B2

Assay: Plasma protein binding
Conditions: % bound in human plasma
measurement-kind: Plasma Protein Binding (%)
Give bare numbers, in %.

Req: What does the record list as Plasma Protein Binding for COC(=O)Cn1nc(-c2ccc(C)cc2)c2ccccc21 [Compound 46856255] ?
Resp: 96

Could you now consider this next molecule?
Req: What value of Plasma Protein Binding has been recorded for this entry: COC(=O)Cn1nc(-c2ccccc2)c2ccccc21 [Compound 3243873]
Resp: 96

---

Experiment: IC50 values and selectivity of Table 10A (target yeast, anti-target human cytochrome)
Type: biochemical
measurement-kind: pIC50
One number for each entry, as −log10 of the molar value.

Example compounds with recorded pIC50:
Req: Return reported pIC50; argument: `Cc1cc(Cn2nc(-c3ccccc3)c3ccccc32)on1`
Resp: 4.52

Req: Name the reported pIC50 value associated with the compound `COC(=O)Cn1nc(-c2cccc(OCCC(C)(C)C)c2)c2ccccc21`
Resp: 7.40

Answer for every listed entry: what is its pIC50? The entries follow.
1. Cc1cccc2c(-c3cc(C(F)(F)F)ccc3F)nn(Cc3nnn(C)n3)c12
2. COC(=O)Cn1nc(-c2cccc(C#N)c2)c2ccccc21

Resp:
1. 7.64
2. 5.90

---

For each record, write down the corresponding IC50.
Test system: C. albicans CaCi-2
Assay: CaCi-2 growth inhibition in the presence of 8 μg/ml fluconazole (Alamar Blue)
Assay type: cell-based, Candida albicans
Conditions: 37° C., 48 hours, with 8 μg/mL (26 μM) fluconazole; average of at least three experiments; read-out: CaCi-2 IC50
Answers are plain numbers, in µM.

Solved entries (count: 5):
Req: Name the reported IC50 value associated with the compound COC(=O)Cn1nc(-c2ccccc2)c2cc(C)ccc21 [Compound 5-Me]
Resp: 5.2

Req: GET /values?readout=IC50&item= COC(=O)Cn1nc(-c2ccccc2)c2cc(OC)ccc21 [Compound 5-OMe]
Resp: 14.9

Req: Please give the measured IC50 for this compound: COC(=O)Cn1nc(-c2cccc(N(C)C)c2)c2ccccc21 [Cpd 37]
Resp: 0.8

Req: What value of IC50 has been reported for the following compound? `COC(=O)Cn1nc(-c2cscn2)c2ccccc21`
Resp: 12.9

Req: Entry COC(=O)Cn1nc(-c2ccccc2)c2ccc(Cl)cc21 [Compound 6-Cl] : reported IC50 = ?
Resp: 4

Count: 3. Required value per item: IC50.
1. COC(=O)Cn1nc(-c2ccc(F)cc2)c2ccccc21 [Cpd 32]
2. COC(=O)Cn1nc(-c2ccccc2)c2cc(F)ccc21 [Compound 5-F]
3. COC(=O)Cn1nc(-c2ccccc2C)c2ccccc21 [Cpd 39]

Resp:
8.3
11.2
5.3

Batch: IC50 for all items listed.
1. COC(=O)Cn1nc(-c2ccccc2OC)c2ccccc21 [Cpd 40]
2. COC(=O)Cn1nc(C2CCCCC2)c2ccccc21
3. COC(=O)Cn1nc(-c2ccccc2)c2ccc(OC)cc21 [Compound 6-OMe]

Resp:
1: 9.3; 2: 2.3; 3: 9.5

---

Answer each item with its documented Plasma Protein Binding.
Experiment: Plasma protein binding
Conditions: % bound in human plasma
One number for each entry, in %.

Guide cases for Plasma Protein Binding, answers given:
Req: Request the reported Plasma Protein Binding associated with `COC(=O)Cn1nc(-c2ccccc2)c2ccc(F)cc21`
Resp: 97

Req: What value of measured Plasma Protein Binding is listed for `c1ccc(-c2n[nH]c3ccccc23)cc1` ?
Resp: 98

Req: Fill in: Plasma Protein Binding of `COC(=O)Cn1nc(-c2ccccc2)c2ccc(Cl)cc21` is ___
Resp: 18

Provide Plasma Protein Binding values for the following items, in order.
1. CCOC(=O)Cn1nc(-c2ccccc2)c2ccccc21
2. O=C(O)Cn1nc(-c2ccccc2)c2ccccc21
3. COC(=O)Cn1nc(-c2ccccc2)c2ccc(C(F)(F)F)cc21
4. CCC(=O)Cn1nc(-c2ccccc2)c2ccccc21

Resp:
1: 99; 2: 97; 3: 62; 4: 99

---

Assay: PBS solubility
Conditions: aqueous buffer
measurement-kind: solubility

Req: Any idea what solubility was measured for `CCOC(=O)c1nn(Cc2ccc(Cl)cc2)c2ccccc12` ?
Resp: < 0.1 µM

---

Target: cytochrome B of yeast S. cerevisiae (wild type) (Saccharomyces cerevisiae)
measurement-kind: IC50

Req: If you can, please state the reported IC50 value of `COC(=O)Cn1nc(-c2ccccc2)c2ccccc21` .
Resp: ~600 nM

---

Assay: PBS solubility
Settings: PBS
measurement-kind: PBS Solubility

Look over these answered cases.
Req: Return reported PBS Solubility; argument: `COC(=O)CCn1nc(-c2ccccc2)c2ccccc21`
Resp: < 1.0 µM

Req: // returns reported PBS Solubility for input `O=C(Cn1nc(-c2ccccc2)c2ccccc21)N1CCc2ccccc2C1`
Resp: < 1.0 µM

Req: For `CCC(=O)Cn1nc(-c2ccccc2)c2ccccc21` , what is its reported PBS Solubility?
Resp: < 1.0 µM

Req: May I ask what PBS Solubility has been recorded for `COC(=O)[C@@H](C)n1nc(-c2ccccc2)c2ccccc21.COC(=O)[C@H](C)n1nc(-c2ccccc2)c2ccccc21` ?
Resp: < 1.0 µM

Req: Data request, read-out PBS Solubility, for `COC(=O)Cn1nc(I)c2ccccc21`
Resp: 143.5 µM

State recorded PBS Solubility for all listed compounds.
1. CN(C)C(=O)Cn1nc(-c2ccccc2)c2ccccc21
2. CNC(=O)Cn1nc(-c2ccccc2)c2ccccc21

Resp:
["325.5 µM", "< 18.5 µM"]

---

System: C. albicans CaCi-2
Test: CaCi-2 growth inhibition in the presence of 8 μg/ml fluconazole (Alamar Blue)
Format: cell-based, Candida albicans
Conditions: 37° C., 48 hours, with 8 μg/mL (26 μM) fluconazole; average of at least three experiments; read-out: CaCi-2 IC50
Would you kindly list IC50 for each of these compounds?
Answers are plain numbers, in nM.

Req: What does the data say about its IC50? Entry: `COC(=O)Cn1nc(-c2cccc(F)c2)c2ccccc21`
Resp: 1700

Req: Return reported IC50; argument: `COC(=O)Cn1nc(-c2cccc(OC)c2)c2ccccc21`
Resp: 700

Req: Report IC50 for `COC(=O)Cn1nc(-c2cccc(C)c2)c2ccccc21` please.
Resp: 1100

Req: For `COC(=O)Cn1nc(-c2ccc(C)cc2)c2ccccc21` , what is its reported IC50?
Resp: 4800

Req: Could you tell me which IC50 is on file for `COC(=O)Cn1nc(-c2ccccc2)c2ccc(C)cc21` ?
Resp: 5900

// moving on: another record for IC50
Req: Which IC50 reading was recorded for the compound `COC(=O)Cn1nc(-c2ccc(OC)cc2)c2ccccc21` ?
Resp: 4200

---

Target: yeast (Saccharomyces cerevisiae)
Construct: Mitochondrial membranes were prepared from yeast; endogenous in cells; host or cells: yeast (mitochondrial membranes)
Assay: IC50 values and selectivity of Table 10A (target yeast, anti-target human cytochrome)
Type: biochemical
Conditions: target yeast, anti-target human cytochrome
Values of Selectivity* (anti-target IC50)/(target IC50) strictly less than 40 map to t, and values of at least 40 map to f.

Consider the following illustrative entries.
Req: A record lists `COC(=O)Cn1nc(-c2ccccc2)c2c(C(F)(F)F)cccc21` . Is its Selectivity* (anti-target IC50)/(target IC50) below 40?
Resp: t

Req: Does the reported Selectivity* (anti-target IC50)/(target IC50) of the following compound sit strictly below 40? `COC(=O)Cn1nc(-c2cccc(OCc3ccccc3)c2C)c2ccccc21`
Resp: t

Req: Would you kindly verify if Selectivity* (anti-target IC50)/(target IC50) of `COC(=O)Cn1nc(-c2cc(C(F)(F)F)ccc2F)c2cccc(C)c21` is strictly less than 40?
Resp: f

Req: Lab note: confirm whether the reported Selectivity* (anti-target IC50)/(target IC50) for this compound is below 40, equality not counting. compound: `COC(=O)Cn1nc(-c2cccc(OCCCC3CCCCC3)c2)c2ccccc21`
Resp: f

Req: Does the reported Selectivity* (anti-target IC50)/(target IC50) of `c1ccc(-c2nn(Cc3nnco3)c3ccccc23)cc1` stay below 40?
Resp: f

Now let's try a different one.
Req: Given the entry `COC(=O)Cn1nc(-c2cccc(OCCN(C(C)C)C(C)C)c2)c2ccccc21` , would its reported Selectivity* (anti-target IC50)/(target IC50) be below 40?
Resp: t

---

For each of the compounds below, state its Selectivity* (anti-target IC50)/(target IC50).
Target: yeast (Saccharomyces cerevisiae)
Construct: Mitochondrial membranes were prepared from yeast; endogenous in cells; host or cells: yeast (mitochondrial membranes)
Assay: IC50 values and selectivity of Table 10A (target yeast, anti-target human cytochrome)
Assay type: biochemical
Conditions: target yeast, anti-target human cytochrome
Answers are plain numbers.

These recorded examples may help you get a feel for the data.
Req: Find the recorded Selectivity* (anti-target IC50)/(target IC50) belonging to COC(=O)Cn1nc(-c2cc(OCCCC3CCCCC3)ccc2F)c2cccc(C)c21 [Compound I-101] and report it.
Resp: 49

Req: Return reported Selectivity* (anti-target IC50)/(target IC50); argument: c1ccc(-c2nn(Cc3cnccn3)c3ccccc23)cc1 [Compound I-115]
Resp: 128

Req: Could you share which Selectivity* (anti-target IC50)/(target IC50) value was measured for COC(=O)Cn1nc(-c2cccc(F)c2)c2ccccc21 [Compound I-71] ?
Resp: 80

Req: Returns the measured Selectivity* (anti-target IC50)/(target IC50) for the input compound. Input: COC(=O)Cn1nc(-c2ccccc2)c2c(C)cccc21 [Compound I-81]
Resp: 8

Req: Return reported Selectivity* (anti-target IC50)/(target IC50); argument: COC(=O)Cn1nc(-c2cccc([N+](=O)[O-])c2)c2ccccc21 [Compound I-119]
Resp: 160

# batch: return Selectivity* (anti-target IC50)/(target IC50) for each of the 2 compounds below
1. COC(=O)Cn1nc(-c2cc(F)ccc2F)c2ccccc21 [Compound I-129]
2. c1ccc(-c2nn(Cc3ncon3)c3ccccc23)cc1 [Compound I-85]

Resp:
133
40

Fill in Selectivity* (anti-target IC50)/(target IC50) for each of the 4 compounds listed.
1. COC(=O)Cn1nc(-c2cccc(OCCC3CCCCC3)c2)c2ccccc21 [Compound I-141]
2. Cc1cccc2c(-c3cc(OCCCC4CCCCC4)ccc3F)nn(Cc3nnn(C)n3)c12 [Compound I-103]
3. COC(=O)Cn1nc(-c2cc(OCCCC3CCCCC3)ccc2F)c2ccccc21 [Compound I-100]
4. COC(=O)Cn1nc(-c2cc(OCc3ccccc3)ccc2F)c2ccccc21 [Compound I-136]

Resp:
12
71
54
8.3

For every item below, please supply its Selectivity* (anti-target IC50)/(target IC50).
1. Fc1ccc(C(F)(F)F)cc1-c1nn(Cc2cnccn2)c2ccccc12 [Compound I-125]
2. COC(=O)Cn1nc(-c2cc(OCc3ccccc3)ccc2C)c2ccccc21 [Compound I-135]
3. Cn1nnc(Cn2nc(-c3cc(OCCCC4CCCCC4)ccc3F)c3ccccc32)n1 [Compound I-102]
4. COC(=O)Cn1nc(-c2cccc(OCc3ccccc3)c2F)c2ccccc21 [Compound I-134]

Resp:
1. 340
2. 3.75
3. 16
4. 20
